Target: Ionotropic glutamate receptor NMDA 1/2D (Rattus norvegicus, UniProt P35439+Q62645)
Assay: Positive allosteric modulation of recombinant rat GluN1/GluN2D receptor expressed in xenopus laevis oocyte assessed as potentiation of glutamate and glycine-induced current response at holding potential -40mV by two electrode voltage clamp method
result type: pEC50
In plain terms, pEC50 is the concentration in mol/L turned into minus its base-10 logarithm.

Input line: Field: pEC50 (Ionotropic glutamate receptor NMDA 1/2D (Rattus norvegicus, UniProt P35439+Q62645)). Entry: COc1ccc(OCC2c3ccc(N(C)C)cc3CCN2C(=O)c2cccc(Br)c2)cc1 (stereo not drawn)
Output line: 5.42

Input line: Field: pEC50 (Ionotropic glutamate receptor NMDA 1/2D (Rattus norvegicus, UniProt P35439+Q62645)). Entry: COc1ccc(OCC2c3ccc(N4CCOCC4)cc3CCN2C(=O)c2cccc(Br)c2)cc1 (stereo not drawn)
Output line: 5.37

Input line: Field: pEC50 (Ionotropic glutamate receptor NMDA 1/2D (Rattus norvegicus, UniProt P35439+Q62645)). Entry: CC(C)Oc1ccc(OCC2c3ccc(OC(C)C)cc3CCN2C(=S)c2cccc(C(F)(F)F)c2)cc1 (stereo not drawn)
Output line: 6.48

* * *

Provide the reported Activity of each item.
Biological target: Ionotropic glutamate receptor NMDA 1/2D (Rattus norvegicus) (UniProt P35439+Q62645)
Assay: Positive allosteric modulation of recombinant rat GluN1/GluN2D receptor expressed in xenopus laevis oocyte assessed as potentiation of glutamate and glycine-induced current response at 10 uM at holding potential -40mV by two electrode voltage clamp method relative to control
Express the result in % but write the number alone.

Input line: Field: Activity (Ionotropic glutamate receptor NMDA 1/2D (Rattus norvegicus) (UniProt P35439+Q62645)). Entry: CCOc1ccc(OCC2c3ccc(OC(C)C)cc3CCN2C(=O)c2cccc(Cl)c2)cc1 (stereo unspecified)
Output line: 102

Input line: Field: Activity (Ionotropic glutamate receptor NMDA 1/2D (Rattus norvegicus) (UniProt P35439+Q62645)). Entry: CCOc1ccc(OCC2c3ccc(OC(C)C)cc3CCN2C(=O)c2ccc(Cl)c(Cl)c2)cc1 (stereo unspecified)
Output line: 122

Input line: Field: Activity (Ionotropic glutamate receptor NMDA 1/2D (Rattus norvegicus) (UniProt P35439+Q62645)). Entry: COc1ccccc1OCC1c2ccc(OC(C)C)cc2CCN1C(=O)c1cccc(Cl)c1 (stereo unspecified)
Output line: 99

Input line: Field: Activity (Ionotropic glutamate receptor NMDA 1/2D (Rattus norvegicus) (UniProt P35439+Q62645)). Entry: CCOc1ccc(OCC2c3ccc(OC4CCCC4)cc3CCN2C(=O)c2cccc(Cl)c2)cc1 (stereo unspecified)
Output line: 193

Input line: Field: Activity (Ionotropic glutamate receptor NMDA 1/2D (Rattus norvegicus) (UniProt P35439+Q62645)). Entry: CCOc1ccc(OCC2c3ccc(OC(C)C)cc3CCN2C(=O)c2cc(Cl)cc(Cl)c2)cc1 (stereo unspecified)
Output line: 80

Input line: Field: Activity (Ionotropic glutamate receptor NMDA 1/2D (Rattus norvegicus) (UniProt P35439+Q62645)). Entry: COc1ccc(OCC2c3ccc(OC(C)C)cc3CCN2C(=O)c2cccc(Br)c2)cc1 (stereo unspecified)
Output line: 312

* * *

Provide the reported CD of each item.
Target: Ionotropic glutamate receptor NMDA 1/2D (Rattus norvegicus) (UniProt P35439+Q62645)
Assay: Positive allosteric modulation of recombinant rat GluN1/GluN2D receptor expressed in xenopus laevis oocyte assessed as compound concentration required to show two fold increase in glutamate and glycine-induced current response at holding potential -40mV by two electrode voltage clamp method
Express the result in µM but write the number alone.

Input line: Given "COc1ccc(OC[C@H]2c3ccc(OC(C)C)cc3CCN2C(=O)c2cccc(Cl)c2)cc1" , state its recorded CD.
Output line: 1

Input line: Given "COc1ccc(OC[C@H]2c3ccc(OC(C)C)cc3CCN2C(=S)c2cccc(Cl)c2)cc1" , state its recorded CD.
Output line: 4.9

Input line: Given "COc1ccc(OC[C@@H]2c3ccc(OC(C)C)cc3CCN2C(=S)c2cccc(Cl)c2)cc1" , state its recorded CD.
Output line: 0.5

Input line: Given "COc1ccc(OC[C@@H]2c3ccc(OC(C)C)cc3CCN2C(=O)c2cccc(Cl)c2)cc1" , state its recorded CD.
Output line: 4.4

Input line: Given COc1ccc(OCC2c3ccc(OC(C)C)cc3CCN2C(=S)c2cccc(F)c2)cc1 (configuration not stated) , state its recorded CD.
Output line: 4.2

Input line: Given COc1ccc(OCC2c3ccc(OC(C)C)cc3CCN2C(=O)c2cccc(Cl)c2)cc1 (configuration not stated) , state its recorded CD.
Output line: 4.9

Input line: Given COc1ccc(OCC2c3ccc(OC(C)C)cc3CCN2C(=S)c2cccc(Cl)c2)cc1 (configuration not stated) , state its recorded CD.
Output line: 0.8
